Exercise: state measured pIC50 for each of the compounds provided.
- system tested: CDK4/CycD (Homo sapiens (Human))
- Sequence (P11802 whole entry): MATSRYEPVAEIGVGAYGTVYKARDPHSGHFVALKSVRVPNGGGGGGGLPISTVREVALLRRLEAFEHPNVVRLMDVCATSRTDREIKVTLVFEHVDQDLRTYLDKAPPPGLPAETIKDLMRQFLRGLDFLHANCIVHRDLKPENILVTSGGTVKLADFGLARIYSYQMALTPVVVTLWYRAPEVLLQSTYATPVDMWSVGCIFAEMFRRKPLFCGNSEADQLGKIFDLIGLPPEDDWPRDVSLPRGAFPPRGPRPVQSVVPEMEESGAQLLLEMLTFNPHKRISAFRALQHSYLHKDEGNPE
- Sequence (P24385 whole entry partner): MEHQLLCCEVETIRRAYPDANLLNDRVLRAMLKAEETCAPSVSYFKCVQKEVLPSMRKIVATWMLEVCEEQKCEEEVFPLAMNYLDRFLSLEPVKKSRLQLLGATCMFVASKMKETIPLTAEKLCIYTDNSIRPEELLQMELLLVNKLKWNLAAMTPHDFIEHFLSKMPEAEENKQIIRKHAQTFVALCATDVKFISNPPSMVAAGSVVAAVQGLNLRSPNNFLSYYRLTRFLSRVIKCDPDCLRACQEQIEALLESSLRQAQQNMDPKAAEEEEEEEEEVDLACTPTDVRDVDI
- experiment notes: CDK4/CycD kinase assay (Caliper microfluidic)
- experimental setup: at Km for ATP
Keep in mind that pIC50 stands for -log10 of concentration in molar terms.

Input: Notebook: pull reported pIC50 for CDK4/CycD (Homo sapiens (Human)), entry `C[C@H]1CNC(=O)N1c1ccnc(Nc2ccc(N3CCN(C)CC3)cn2)n1`
Output: 5.82

Input: Tell me reported pIC50 for `CN1CCN(c2ccc(Nc3nccc(N4CCNC4=O)n3)nc2)CC1` , tested with CDK4/CycD (Homo sapiens (Human)).
Output: 5.09

Input: Give pIC50 (CDK4/CycD (Homo sapiens (Human))) of the following compound: `CN1CCN(c2ccc(Nc3nccc(N4C(=O)NCC45CCCCC5)n3)nc2)CC1`
Output: 6.00
